experimentDescription: Monkey pharmacokinetics, SC and IV administration
Format: in vivo, cynomolgus monkeys
experimentalContext: both sexes, cynomolgus monkey, plasma, sc; Subcutaneous, 30 mg/kg
Numbered stars: 1 amine (or outer) side, 2 acyl side, 3 side chain; on linkers, the order of the positions; unused ones are H or OH. Bridge positions count the residues as written; N and C are the ends. Square brackets hold non-standard residues; d marks the D form. Peptide text beside a SMILES is read from it. * marks the point of attachment. ξ: configuration not given here. Orn(4R-OH,5R-OCH2CH2NMe3+) = C[N+](C)(C)CCO[C@@H](N[*:3])[C@H](O)C[C@H](N[*:1])C(=O)[*:2]; pTerphenylCO(4''-OnC5H11) = CCCCCOc1ccc(-c2ccc(-c3ccc(C(=O)*)cc3)cc2)cc1; hTyr(3S-OH,4S-OH) = N[C@H](C(=O)O)[C@H](O)[C@@H](O)c1ccc(O)cc1; X1 = C[C@H]1CN([*:1])C(C(=O)[*:2])C1O; Hyp = O=C(O)[C@@H]1C[C@@H](O)CN1; ξT = CC(O)C(N)C(=O)O
assayMetric: Cmax

1. CCCCCOc1ccc(-c2ccc(-c3ccc(C(=O)N[C@H]4C[C@@H](O)[C@@H](OCC[N+](C)(C)C)NC(=O)C5C(O)[C@@H](C)CN5C(=O)[C@H]([C@@H](C)O)NC(=O)[C@H]([C@H](O)[C@@H](O)c5ccc(O)cc5)NC(=O)[C@@H]5C[C@@H](O)CN5C(=O)C(C(C)O)NC4=O)cc3)cc2)cc1 (stereo partly drawn) [CD101] ({pTerphenylCO(4''-OnC5H11)}-[Orn(4R-OH,5R-OCH2CH2NMe3+)][ξT][Hyp][hTyr(3S-OH,4S-OH)]T[X1]; lactam 1-C) ... 13.4 µg/mL

* * *

experimentDescription: Monkey pharmacokinetics, SC and IV administration
Assay type: in vivo, cynomolgus monkeys
experimentalContext: both sexes, cynomolgus monkey, plasma, sc, 30 mg/kg, Subcutaneous
Numbered stars: 1 amine (or outer) side, 2 acyl side, 3 side chain; on linkers, the order of the positions; unused ones are H or OH. Bridge positions count the residues as written; N and C are the ends. Square brackets hold non-standard residues; d marks the D form. Peptide text beside a SMILES is read from it. * marks the point of attachment. ξ: configuration not given here. Orn(4R-OH,5R-OCH2CH2NMe3+) = C[N+](C)(C)CCO[C@@H](N[*:3])[C@H](O)C[C@H](N[*:1])C(=O)[*:2]; pTerphenylCO(4''-OnC5H11) = CCCCCOc1ccc(-c2ccc(-c3ccc(C(=O)*)cc3)cc2)cc1; hTyr(3S-OH,4S-OH) = N[C@H](C(=O)O)[C@H](O)[C@@H](O)c1ccc(O)cc1; X1 = C[C@H]1CN([*:1])C(C(=O)[*:2])C1O; Hyp = O=C(O)[C@@H]1C[C@@H](O)CN1; ξT = CC(O)C(N)C(=O)O
assayMetric: half-life

1) CCCCCOc1ccc(-c2ccc(-c3ccc(C(=O)N[C@H]4C[C@@H](O)[C@@H](OCC[N+](C)(C)C)NC(=O)C5C(O)[C@@H](C)CN5C(=O)[C@H]([C@@H](C)O)NC(=O)[C@H]([C@H](O)[C@@H](O)c5ccc(O)cc5)NC(=O)[C@@H]5C[C@@H](O)CN5C(=O)C(C(C)O)NC4=O)cc3)cc2)cc1 (stereo partly drawn) [CD101] ({pTerphenylCO(4''-OnC5H11)}-[Orn(4R-OH,5R-OCH2CH2NMe3+)][ξT][Hyp][hTyr(3S-OH,4S-OH)]T[X1]; lactam 1-C) ... ~124 h

* * *

experimentDescription: Single-dose plasma pharmacokinetics in mice, IP
Type: in vivo
experimentalContext: ICR Swiss/CD1, mouse, IP doses of 1, 4, 16 and 64 mg/kg, read-out: Peak (Cmax) levels, range
Numbered stars: 1 amine (or outer) side, 2 acyl side, 3 side chain; on linkers, the order of the positions; unused ones are H or OH. Bridge positions count the residues as written; N and C are the ends. Square brackets hold non-standard residues; d marks the D form. Peptide text beside a SMILES is read from it. * marks the point of attachment. ξ: configuration not given here. Orn(4R-OH,5R-OCH2CH2NMe3+) = C[N+](C)(C)CCO[C@@H](N[*:3])[C@H](O)C[C@H](N[*:1])C(=O)[*:2]; pTerphenylCO(4''-OnC5H11) = CCCCCOc1ccc(-c2ccc(-c3ccc(C(=O)*)cc3)cc2)cc1; hTyr(3S-OH,4S-OH) = N[C@H](C(=O)O)[C@H](O)[C@@H](O)c1ccc(O)cc1; X1 = C[C@H]1CN([*:1])C(C(=O)[*:2])C1O; Hyp = O=C(O)[C@@H]1C[C@@H](O)CN1; ξT = CC(O)C(N)C(=O)O
assayMetric: Cmax

1) CCCCCOc1ccc(-c2ccc(-c3ccc(C(=O)N[C@H]4C[C@@H](O)[C@@H](OCC[N+](C)(C)C)NC(=O)C5C(O)[C@@H](C)CN5C(=O)[C@H]([C@@H](C)O)NC(=O)[C@H]([C@H](O)[C@@H](O)c5ccc(O)cc5)NC(=O)[C@@H]5C[C@@H](O)CN5C(=O)C(C(C)O)NC4=O)cc3)cc2)cc1 (stereo partly drawn) [CD101] ({pTerphenylCO(4''-OnC5H11)}-[Orn(4R-OH,5R-OCH2CH2NMe3+)][ξT][Hyp][hTyr(3S-OH,4S-OH)]T[X1]; lactam 1-C) ... 2600 to 76700 ng/mL

* * *

experimentDescription: Monkey pharmacokinetics, SC and IV administration
Type: in vivo, cynomolgus monkeys
experimentalContext: female, cynomolgus monkey, plasma; animal 9707, F; 30 mg/kg SC single dose
Experimental: Therefore, only local tolerability (and PK) of CD101 by SC administration required evaluation. […] Plasma concentrations were then quantified by liquid chromatography with tandem mass spectrometric detection (LC-MS/MS). Bioavailability from SC dosing was calculated by comparing the calculated area under the concentration-time profile (AUC) from SC against the AUC from IV administration of the same dose.
Numbered stars: 1 amine (or outer) side, 2 acyl side, 3 side chain; on linkers, the order of the positions; unused ones are H or OH. Bridge positions count the residues as written; N and C are the ends. Square brackets hold non-standard residues; d marks the D form. Peptide text beside a SMILES is read from it. * marks the point of attachment. ξ: configuration not given here. Orn(4R-OH,5R-OCH2CH2NMe3+) = C[N+](C)(C)CCO[C@@H](N[*:3])[C@H](O)C[C@H](N[*:1])C(=O)[*:2]; pTerphenylCO(4''-OnC5H11) = CCCCCOc1ccc(-c2ccc(-c3ccc(C(=O)*)cc3)cc2)cc1; hTyr(3S-OH,4S-OH) = N[C@H](C(=O)O)[C@H](O)[C@@H](O)c1ccc(O)cc1; X1 = C[C@H]1CN([*:1])C(C(=O)[*:2])C1O; Hyp = O=C(O)[C@@H]1C[C@@H](O)CN1; ξT = CC(O)C(N)C(=O)O
assayMetric: AUC(0-t) (µg·h/mL)

1. CCCCCOc1ccc(-c2ccc(-c3ccc(C(=O)N[C@H]4C[C@@H](O)[C@@H](OCC[N+](C)(C)C)NC(=O)C5C(O)[C@@H](C)CN5C(=O)[C@H]([C@@H](C)O)NC(=O)[C@H]([C@H](O)[C@@H](O)c5ccc(O)cc5)NC(=O)[C@@H]5C[C@@H](O)CN5C(=O)C(C(C)O)NC4=O)cc3)cc2)cc1 (stereo partly drawn) [CD101] ({pTerphenylCO(4''-OnC5H11)}-[Orn(4R-OH,5R-OCH2CH2NMe3+)][ξT][Hyp][hTyr(3S-OH,4S-OH)]T[X1]; lactam 1-C) ... 2180

* * *

experimentDescription: Plasma and lung epithelial lining fluid (ELF) pharmacokinetics in ICR mice
Type: in vivo
experimentalContext: ICR, mouse, lung epithelial lining fluid (ELF), ip, 20 mg/kg, 20 mg/kg IP; read-out: AUC exposure ratios of ELF/plasma
Numbered stars: 1 amine (or outer) side, 2 acyl side, 3 side chain; on linkers, the order of the positions; unused ones are H or OH. Bridge positions count the residues as written; N and C are the ends. Square brackets hold non-standard residues; d marks the D form. Peptide text beside a SMILES is read from it. * marks the point of attachment. ξ: configuration not given here. Orn(4R-OH,5R-OCH2CH2NMe3+) = C[N+](C)(C)CCO[C@@H](N[*:3])[C@H](O)C[C@H](N[*:1])C(=O)[*:2]; pTerphenylCO(4''-OnC5H11) = CCCCCOc1ccc(-c2ccc(-c3ccc(C(=O)*)cc3)cc2)cc1; hTyr(3S-OH,4S-OH) = N[C@H](C(=O)O)[C@H](O)[C@@H](O)c1ccc(O)cc1; X1 = C[C@H]1CN([*:1])C(C(=O)[*:2])C1O; Hyp = O=C(O)[C@@H]1C[C@@H](O)CN1; ξT = CC(O)C(N)C(=O)O
assayMetric: Kp

1. CCCCCOc1ccc(-c2ccc(-c3ccc(C(=O)N[C@H]4C[C@@H](O)[C@@H](OCC[N+](C)(C)C)NC(=O)C5C(O)[C@@H](C)CN5C(=O)[C@H]([C@@H](C)O)NC(=O)[C@H]([C@H](O)[C@@H](O)c5ccc(O)cc5)NC(=O)[C@@H]5C[C@@H](O)CN5C(=O)C(C(C)O)NC4=O)cc3)cc2)cc1 (stereo partly drawn) [CD101] ({pTerphenylCO(4''-OnC5H11)}-[Orn(4R-OH,5R-OCH2CH2NMe3+)][ξT][Hyp][hTyr(3S-OH,4S-OH)]T[X1]; lactam 1-C) ... 0.8 to 0.95
